procedureText: Acute toxicity (LD50), intraperitoneal administration to female ICR mice
reportedConditions: mouse, in vivo, ip; intraperitoneal, female ICR mice

| compound | LD50 |
| --- | --- |
| CC(O)C(C)C(O)C(=O)NC(C)(CO)C(=O)O (stereo not shown) | > 50 mg/kg |
